ASSAY_METHOD_TEXT: Steady-state PK in KPC mice fed metarrestin-infused chow
Type: in vivo
ASSAY_SETUP: KPC, mouse, plasma, oral; 6 hr; day 10, 10 mg/kg/day (70 ppm) chow; read-out: Plasma concentration
METRIC_NAME: concentration at 6 h
Write your answer as a measured quantity: the number, then the unit.

# get_value(readout='concentration at 6 h', item= N=c1c2c(-c3ccccc3)c(-c3ccccc3)n(Cc3ccccc3)c2ncn1[C@H]1CC[C@H](O)CC1 )
300 nM

====

ASSAY_METHOD_TEXT: Steady-state PK in KPC mice fed metarrestin-infused chow
Assay type: in vivo
ASSAY_SETUP: KPC, mouse, tumor, oral; 6 hr; day 10, 10 mg/kg/day (70 ppm) chow; read-out: Tumor concentration
METRIC_NAME: concentration at 6 h (µM)
// return numeric value only (unit: µM, not printed)

Which concentration at 6 h is listed for N=c1c2c(-c3ccccc3)c(-c3ccccc3)n(Cc3ccccc3)c2ncn1[C@H]1CC[C@H](O)CC1 [metarrestin] ?
8
